Target: mOR-I7 (Mus musculus)
Construct: expressed in transfected cells; host or cells: HEK 293T
Sequence (Q9QWU6 1-327): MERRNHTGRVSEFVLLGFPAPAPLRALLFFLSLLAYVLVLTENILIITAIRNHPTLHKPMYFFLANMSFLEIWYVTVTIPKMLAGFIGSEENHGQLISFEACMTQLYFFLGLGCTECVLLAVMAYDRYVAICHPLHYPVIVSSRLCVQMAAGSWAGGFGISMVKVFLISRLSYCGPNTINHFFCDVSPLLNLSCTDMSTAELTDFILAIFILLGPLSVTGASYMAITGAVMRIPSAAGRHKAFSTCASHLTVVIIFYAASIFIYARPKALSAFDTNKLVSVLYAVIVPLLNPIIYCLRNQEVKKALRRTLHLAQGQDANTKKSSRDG
Assay: cAMP level immunoassay (TROPIX) in the novel assay on HEK 293T overexpressing mOR-I7
Format: cell-based
Settings: BSA solution incubated with 16 μl of 1 M odorant; 20 minutes incubation

compound: CCCCCCC=O
mOR-I7 activation by cellular cAMP pool: mOR-I7 ligands

compound: CC(C)=CCCC(C)CC=O (centres unmarked)
mOR-I7 activation by cellular cAMP pool: mOR-I7 ligands

compound: CCCCCCCC=O
mOR-I7 activation by cellular cAMP pool: mOR-I7 ligands
